- SYSTEM_NAME: AHR (Homo sapiens, UniProt P35869)
- Sequence (P35869 11-848): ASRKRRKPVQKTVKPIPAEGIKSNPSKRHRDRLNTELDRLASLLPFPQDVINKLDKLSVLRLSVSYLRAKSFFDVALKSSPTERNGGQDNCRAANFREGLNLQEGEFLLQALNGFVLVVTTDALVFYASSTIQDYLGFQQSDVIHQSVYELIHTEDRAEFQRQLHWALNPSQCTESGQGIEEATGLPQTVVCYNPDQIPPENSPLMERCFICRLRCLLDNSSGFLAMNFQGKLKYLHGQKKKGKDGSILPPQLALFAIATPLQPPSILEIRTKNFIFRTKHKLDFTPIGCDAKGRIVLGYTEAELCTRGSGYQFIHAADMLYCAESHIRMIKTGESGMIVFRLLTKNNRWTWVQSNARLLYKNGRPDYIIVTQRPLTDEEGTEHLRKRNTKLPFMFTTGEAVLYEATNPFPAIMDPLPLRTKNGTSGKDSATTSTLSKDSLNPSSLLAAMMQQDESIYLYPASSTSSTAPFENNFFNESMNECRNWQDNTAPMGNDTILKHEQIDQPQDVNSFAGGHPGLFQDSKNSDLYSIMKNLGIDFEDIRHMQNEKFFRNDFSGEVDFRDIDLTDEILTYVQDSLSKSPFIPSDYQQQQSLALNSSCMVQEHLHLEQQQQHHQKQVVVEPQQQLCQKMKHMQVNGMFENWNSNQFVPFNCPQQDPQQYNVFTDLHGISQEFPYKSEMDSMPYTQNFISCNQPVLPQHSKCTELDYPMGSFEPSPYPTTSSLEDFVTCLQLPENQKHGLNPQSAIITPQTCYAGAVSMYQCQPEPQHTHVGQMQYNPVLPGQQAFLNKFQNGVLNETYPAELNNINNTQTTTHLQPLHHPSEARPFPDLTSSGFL
- RUN_DESCRIPTION: In vitro assay 3: AHR-regulated CYP1A1 expression in human cell line (U937, qPCR, KA stimulation)
- Type: cell-based
- STATED_CONDITIONS: U937 cells, 200 uM KA, 6 hours, CYP1A1 expression by qPCR; read-out: Assay 3: Hum CYP1A1 Antagonism IC50
In this section we review reported IC50 values for a set of molecules.
READOUT_NAME: IC50

[[record]]
molecule = "C[C@@H](CO)NC(=O)c1cc(-c2ccc(OC(F)(F)F)cc2)nn(-c2cccnc2)c1=O [Example 153]"
system_name = "AHR (Homo sapiens, UniProt P35869)"
endpoint_value = "21.7 nM"

[[record]]
molecule = "C[C@@H](CO)NC(=O)c1cc(-c2ccc(Cl)cc2)nn(-c2ccc(F)s2)c1=O [Example 220]"
system_name = "AHR (Homo sapiens, UniProt P35869)"
endpoint_value = "1.96 nM"

[[record]]
molecule = "Cn1cc(-n2nc(-c3ccc(Cl)cc3)cc(C(=O)N[C@@H]3COC[C@@H]3O)c2=O)cn1 (single isomer, unassigned; enantiomer 2) [Example 45]"
system_name = "AHR (Homo sapiens, UniProt P35869)"
endpoint_value = "83.5 nM"

[[record]]
molecule = "Cn1cc(-n2nc(-c3ccc(Cl)cc3)cc(C(=O)N[C@H]3CCC[C@H]3O)c2=O)cn1 [Example 50]"
system_name = "AHR (Homo sapiens, UniProt P35869)"
endpoint_value = "6.74 nM"

[[record]]
molecule = "Cc1ccc(-c2cc(C(=O)NC(CO)C(C)C)c(=O)n(-c3cnn(C)c3)n2)cc1 (single isomer, unassigned) [Example 2]"
system_name = "AHR (Homo sapiens, UniProt P35869)"
endpoint_value = "3.03 nM"

[[record]]
molecule = "CC(C)(O)CNC(=O)c1cc(-c2ccc(Cl)cc2)nn(-c2cccnc2)c1=O [Example 71]"
system_name = "AHR (Homo sapiens, UniProt P35869)"
endpoint_value = "60.7 nM"

[[record]]
molecule = "Cc1ccc(-c2cc(C(=O)NCC(O)C(F)F)c(=O)n(-c3cnn(C)c3)n2)cc1 (single isomer, unassigned; enantiomer 1) [Example 14]"
system_name = "AHR (Homo sapiens, UniProt P35869)"
endpoint_value = "25.5 nM"

[[record]]
molecule = "O=C(NC[C@H](O)C(F)(F)F)c1cc(-c2ccc(OC(F)F)cc2)nn(-c2cccnc2)c1=O [Example 314]"
system_name = "AHR (Homo sapiens, UniProt P35869)"
endpoint_value = "10.9 nM"

[[record]]
molecule = "O=C(N[C@H](CO)C(F)(F)F)c1cc(-c2ccc(Cl)cc2)nn(-c2cccnc2)c1=O [Example 96]"
system_name = "AHR (Homo sapiens, UniProt P35869)"
endpoint_value = "3.77 nM"

[[record]]
molecule = "O=C(NC[C@@H](O)CO)c1cc(-c2ccc(C(F)(F)F)cc2)nn(-c2cccnc2)c1=O [Example 113]"
system_name = "AHR (Homo sapiens, UniProt P35869)"
endpoint_value = "105 nM"

[[record]]
molecule = "O=C(NC(CO)C1CC1)c1cc(-c2ccc(Cl)cc2)nn(-c2cccnc2)c1=O (single isomer, unassigned; (-)) [Example 92]"
system_name = "AHR (Homo sapiens, UniProt P35869)"
endpoint_value = "2.76 nM"

[[record]]
molecule = "O=C(N[C@H]1CCC[C@H]1O)c1cc(-c2ccc(C(F)(F)F)cc2)nn(-c2cccnc2)c1=O [Example 105]"
system_name = "AHR (Homo sapiens, UniProt P35869)"
endpoint_value = "1.86 nM"

[[record]]
molecule = "Cc1cc(-n2nc(-c3ccc(Cl)cc3)cc(C(=O)N[C@@H](C)CO)c2=O)[nH]n1 [Example 193]"
system_name = "AHR (Homo sapiens, UniProt P35869)"
endpoint_value = "3.03 nM"

[[record]]
molecule = "O=C(NC(CO)C(F)(F)F)c1cc(-c2ccc(Cl)cc2)nn(-c2cccnc2)c1=O (racemic) [Example 76]"
system_name = "AHR (Homo sapiens, UniProt P35869)"
endpoint_value = "13.8 nM"


---

- SYSTEM_NAME: UniProt:P35869
- RUN_DESCRIPTION: In vitro assay 1: antagonism in human cell line (transactivation assay, U87 cells prestimulated with kynurenic acid, DRE firefly luciferase reporter)
- Format: cell-based
- Design: host or cells: U87 glioblastoma cells, stably transfected with DRE firefly luciferase and renilla reporter constructs
- STATED_CONDITIONS: 150 uM kynurenic acid, 20 hours, read-out: Assay 1: AHR-luc Hum Antagonism IC50
READOUT_NAME: log10 IC50 (log10 of the value in nM)

[[record]]
molecule = "Cn1cc(-n2nc(-c3ccc(Cl)cc3)cc(C(=O)NC[C@H](O)CO)c2=O)cn1"
system_name = "UniProt:P35869"
endpoint_value = 2.25

[[record]]
molecule = "COCC(O)CNC(=O)c1cc(-c2ccc(Cl)cc2)nn(-c2cnn(C)c2)c1=O (stereo not shown) [Example 24]"
system_name = "UniProt:P35869"
endpoint_value = 1.94

[[record]]
molecule = "Cc1ccc(-c2cc(C(=O)NCC(O)C(F)F)c(=O)n(-c3cnn(C)c3)n2)cc1 (single isomer, unassigned; enantiomer 1) [Example 14]"
system_name = "UniProt:P35869"
endpoint_value = 1.08

[[record]]
molecule = "C[C@H](NC(=O)c1cc(-c2ccc(CF)cc2)nn(-c2cccnc2)c1=O)C(C)(C)O"
system_name = "UniProt:P35869"
endpoint_value = 2.91

[[record]]
molecule = "Cn1cc(-n2nc(-c3ccc(Cl)cc3)cc(C(=O)NC[C@@H](O)CO)c2=O)cn1"
system_name = "UniProt:P35869"
endpoint_value = 2.47

[[record]]
molecule = "O=C(N[C@H]1CCCC(F)(F)[C@@H]1O)c1cc(-c2ccc(Cl)cc2)nn(-c2cccnc2)c1=O (single isomer, unassigned; enantiomer 1) [Example 144]"
system_name = "UniProt:P35869"
endpoint_value = 1.50

[[record]]
molecule = "Cn1cc(-n2nc(-c3ccc(Cl)cc3)cc(C(=O)NCC(O)C(F)F)c2=O)cn1 (stereo not shown) [Example 21]"
system_name = "UniProt:P35869"
endpoint_value = 1.45

[[record]]
molecule = "Cn1cc(-n2nc(-c3ccc(Cl)cc3)cc(C(=O)N[C@H]3CCC[C@@H]3O)c2=O)cn1 (relative stereo) [Example 51]"
system_name = "UniProt:P35869"
endpoint_value = 0.98

[[record]]
molecule = "Cc1ccc(-c2cc(C(=O)NCC(O)C(F)(F)F)c(=O)n(-c3cnn(C)c3)n2)cc1 (single isomer, unassigned; enantiomer 2) [Example 12]"
system_name = "UniProt:P35869"
endpoint_value = 1.37

[[record]]
molecule = "Cn1cc(-n2nc(-c3ccc(CF)cc3)cc(C(=O)N[C@H](CO)C(F)(F)F)c2=O)cn1"
system_name = "UniProt:P35869"
endpoint_value = 2.11

[[record]]
molecule = "O=C(N[C@H]1CCCC(F)(F)[C@@H]1O)c1cc(-c2ccc(Cl)cc2)nn(-c2cccnc2)c1=O (single isomer, unassigned; enantiomer 2) [Example 145]"
system_name = "UniProt:P35869"
endpoint_value = 0.84

[[record]]
molecule = "N#C[C@@H](CO)NC(=O)c1cc(-c2ccc(C(F)(F)F)nc2)nn(-c2cncc(F)c2)c1=O"
system_name = "UniProt:P35869"
endpoint_value = 2.01

[[record]]
molecule = "Cn1cc(-n2nc(-c3ccc(C(F)F)cc3)cc(C(=O)N[C@H]3CCC[C@@H]3O)c2=O)cn1 (relative stereo)"
system_name = "UniProt:P35869"
endpoint_value = 1.06

[[record]]
molecule = "C[C@H](NC(=O)c1cc(-c2ccc(Cl)cc2)nn(-c2cnn(C(F)F)c2)c1=O)C(C)(C)O"
system_name = "UniProt:P35869"
endpoint_value = 1.65

[[record]]
molecule = "O=C(NC[C@H](O)CO)c1cc(-c2ccc(C(F)(F)F)cc2)nn(-c2cccnc2)c1=O"
system_name = "UniProt:P35869"
endpoint_value = 1.93

[[record]]
molecule = "Cn1cc(-n2nc(-c3ccc(OC(F)(F)F)cc3)cc(C(=O)N[C@@H]3COC[C@H]3O)c2=O)cn1 (racemic) [Example 63]"
system_name = "UniProt:P35869"
endpoint_value = 1.91

[[record]]
molecule = "O=C(N[C@H]1COC[C@@H]1O)c1cc(-c2ccc(Cl)cc2)nn(-c2cccnc2)c1=O (relative stereo) [Example 168]"
system_name = "UniProt:P35869"
endpoint_value = 2.38

[[record]]
molecule = "O=C(NC[C@H](O)C(F)(F)F)c1cc(-c2ccc(C(F)(F)F)cc2)nn(-c2cnn(C(F)F)c2)c1=O"
system_name = "UniProt:P35869"
endpoint_value = 0.63

[[record]]
molecule = "C[C@H](CO)NC(=O)c1cc(-c2ccc(Cl)cc2)nn(-c2cncc(F)c2)c1=O"
system_name = "UniProt:P35869"
endpoint_value = 2.03

[[record]]
molecule = "O=C(N[C@@H]1CSC[C@@H]1O)c1cc(-c2ccc(C(F)(F)F)cc2)nn(-c2cccnc2)c1=O (relative stereo) [Example 290]"
system_name = "UniProt:P35869"
endpoint_value = 0.45

[[record]]
molecule = "CCC(CO)NC(=O)c1cc(-c2ccc(C)cc2)nn(-c2cnn(C)c2)c1=O (single isomer, unassigned) [Example 6]"
system_name = "UniProt:P35869"
endpoint_value = 2.26

[[record]]
molecule = "C[C@@H](CO)NC(=O)c1cc(-c2ccc(C(F)F)nc2)nn(-c2cnn(C)c2)c1=O"
system_name = "UniProt:P35869"
endpoint_value = 2.41

[[record]]
molecule = "O=C(NCC(O)C(F)(F)F)c1cc(-c2ccc(Cl)cc2)nn(-c2cccnc2)c1=O (single isomer, unassigned; (-)) [Example 89]"
system_name = "UniProt:P35869"
endpoint_value = 0.68

[[record]]
molecule = "Cn1cc(-n2nc(-c3ccc(Cl)cc3)cc(C(=O)N[C@H](CO)C(N)=O)c2=O)cn1"
system_name = "UniProt:P35869"
endpoint_value = 2.94

[[record]]
molecule = "O=C(N[C@H]1COCC[C@H]1O)c1cc(-c2ccc(C(F)(F)F)nc2)nn(-c2cncc(F)c2)c1=O"
system_name = "UniProt:P35869"
endpoint_value = 2.23

[[record]]
molecule = "CC(C)(O)CNC(=O)c1cc(-c2ccc(C(F)F)cc2)nn(-c2cccnc2)c1=O"
system_name = "UniProt:P35869"
endpoint_value = 1.75

[[record]]
molecule = "Cc1cc(-n2nc(-c3ccc(Cl)cc3)cc(C(=O)N[C@@H](C)CO)c2=O)[nH]n1"
system_name = "UniProt:P35869"
endpoint_value = 2.55

[[record]]
molecule = "Cn1cc(-n2nc(-c3ccc(OC(F)(F)F)cc3)cc(C(=O)N[C@H](CO)C(F)(F)F)c2=O)cn1"
system_name = "UniProt:P35869"
endpoint_value = 0.18


Cited source for all entries: patent US12522594B2
